Assay: Study G1T28-03 Part 1 plasma PK (with topotecan)
Assay type: in vivo, human
Details: human, plasma, 280 mg/m2, ES-SCLC + topotecan, 280 mg/m2, Cycle 1 Day 1 (n = 7), geometric mean; read-out: AUC0-inf

| molecule | result.unit | AUC(0-inf) |
| --- | --- | --- |
| CN1CCN(c2ccc(Nc3ncc4cc5n(c4n3)C3(CCCCC3)CNC5=O)nc2)CC1 [trilaciclib] | ng·h/mL | 3490 |

----------
Assay: Study G1T28-1-01 plasma PK, first-in-human single dose
Format: in vivo
Conditions: both, human, plasma, intravenous, […]2, healthy volunteers, BED cohort […]2 (n = 12), mean; read-out: Vz

| molecule | Vd |
| --- | --- |
| CN1CCN(c2ccc(Nc3ncc4cc5n(c4n3)C3(CCCCC3)CNC5=O)nc2)CC1 [trilaciclib] | 2640 L |

----------
Assay: Study G1T28-1-01 plasma PK, first-in-human single dose
Assay type: in vivo
Settings: both, human, plasma, iv, […]2, healthy volunteers, single 30-min IV […]2 SAD cohort (n = 6), mean; read-out: Vz

| record.smiles | result.unit | Vd |
| --- | --- | --- |
| CN1CCN(c2ccc(Nc3ncc4cc5n(c4n3)C3(CCCCC3)CNC5=O)nc2)CC1 | L | 2460 |

----------
Assay: Study G1T28-1-01 plasma PK, first-in-human single dose
Type: in vivo
Settings: both sexes, human, plasma, iv, 6 mg/m2, healthy volunteers, single 30-min IV 6 mg/m2 (n = 3), mean

| record.smiles | clearance [mL/min] |
| --- | --- |
| CN1CCN(c2ccc(Nc3ncc4cc5n(c4n3)C3(CCCCC3)CNC5=O)nc2)CC1 | 3130 |

----------
Assay: Study G1T28-03 Part 1 plasma PK (with topotecan)
Type: in vivo, human
Settings: human, plasma, ES-SCLC + topotecan, 240 mg/m2, Cycle 1 Day 4 (n = 15), range
Text: G1T28-03 (NCT02514447) was a multicentre Phase Ib/IIa study in patients with previously treated ES-SCLC [14]. […] Part 1 was a Phase Ib, open-label, dose-finding portion. Part 2 was a Phase IIa, randomized, double-blind, placebo-controlled portion. […] In Part 1 of the study, blood samples for PK analysis were collected at prespecified time points on Cycle 1 Day 1 and Cycle 1 Day 4 for all patients.
observation.type: Tmax

| record.smiles | result |
| --- | --- |
| CN1CCN(c2ccc(Nc3ncc4cc5n(c4n3)C3(CCCCC3)CNC5=O)nc2)CC1 | 22.8 to 90 min |

----------
Assay: Study G1T28-03 Part 1 plasma PK (with topotecan)
Format: in vivo, human
Settings: human, plasma, 280 mg/m2, ES-SCLC + topotecan, 280 mg/m2, Cycle 1 Day 1 (n = 7), geometric mean; read-out: Vz
observation.type: Vd (L)

| record.smiles | numeric.value |
| --- | --- |
| CN1CCN(c2ccc(Nc3ncc4cc5n(c4n3)C3(CCCCC3)CNC5=O)nc2)CC1 | 1720 |

----------
Experiment: Study G1T28-1-01 plasma PK, first-in-human single dose
Format: in vivo
Settings: both sexes, human, plasma, iv, 96 mg/m2, healthy volunteers, single 30-min IV 96 mg/m2 (n = 6), mean; read-out: Vz

| compound | Vd / L |
| --- | --- |
| CN1CCN(c2ccc(Nc3ncc4cc5n(c4n3)C3(CCCCC3)CNC5=O)nc2)CC1 [trilaciclib] | 3050 |
